Origin of measurements: patent US6858638B2

biological target: human KDR enzyme (Homo sapiens); construct: The cytoplasmic domain of the human KDR enzyme; GST; made in house; host or cells: SF21 insect cells (baculovirus); test: KDR substrate (PLCγ) phosphorylation, scintillation assay; format: biochemical; details: 10 μM; read-out: KDR % inhib at 10 μM
Sequence (P35968 786-1356 limits assumed): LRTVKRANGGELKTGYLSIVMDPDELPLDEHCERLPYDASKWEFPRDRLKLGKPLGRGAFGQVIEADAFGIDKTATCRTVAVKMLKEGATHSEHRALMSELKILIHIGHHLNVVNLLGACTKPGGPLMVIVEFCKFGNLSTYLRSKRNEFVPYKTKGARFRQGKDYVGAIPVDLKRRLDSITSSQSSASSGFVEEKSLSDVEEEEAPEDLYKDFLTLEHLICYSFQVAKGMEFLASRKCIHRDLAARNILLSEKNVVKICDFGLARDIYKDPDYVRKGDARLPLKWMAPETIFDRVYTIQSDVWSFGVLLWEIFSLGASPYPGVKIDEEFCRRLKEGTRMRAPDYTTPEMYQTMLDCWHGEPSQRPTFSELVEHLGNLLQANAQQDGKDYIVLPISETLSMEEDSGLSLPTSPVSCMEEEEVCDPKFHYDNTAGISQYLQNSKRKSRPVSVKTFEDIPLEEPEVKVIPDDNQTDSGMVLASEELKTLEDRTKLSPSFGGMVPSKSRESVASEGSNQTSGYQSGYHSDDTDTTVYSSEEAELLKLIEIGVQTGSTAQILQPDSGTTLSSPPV
As shown below, each of these compounds has a reported inhibition at 10 µM value.

# smiles.representation, inhibition at 10 µM [%]
measured = [
    ("O=S(=O)(Nc1ccc2[nH]nc(-c3ccccc3)c2c1)c1cccc(Cl)c1", 98),
    ("CS(=O)(=O)c1ccccc1S(=O)(=O)Nc1ccc2[nH]nc(Br)c2c1", 3),
    ("CS(=O)(=O)c1ccccc1S(=O)(=O)Nc1ccc2[nH]nc(-c3cccc(Cl)c3)c2c1", 71),
    ("CS(=O)(=O)c1ccccc1S(=O)(=O)Nc1ccc2[nH]nc(CCc3ccc(F)cc3)c2c1", 35),
]
